Value source: the Immune Epitope Database (IEDB)

# measured.target: HLA-B*54:01
# method.description: IEDB peptide-MHC binding, purified MHC/competitive/radioactivity; bounds were set here for any values at or beyond the usual limits of such assays
# condition.set: source organism: Candida albicans
pIC50: −log10 of the molar value.
metric.name: pIC50

• FPRFKFVWV = 7.77
• FPASFFIKL = 7.82

###

# measured.target: HLA-B*53:01
# method.description: IEDB peptide-MHC binding, purified MHC/competitive/radioactivity; bounds were set here for any values at or beyond the usual limits of such assays
# condition.set: source organism: Human immunodeficiency virus 1
pIC50: −log10 of the molar value.
metric.name: pIC50

- FPVRPQVPI: 7.52
- FPVRPQVPM: 7.49
- FPVRPQVPL: 6.72

###

Listing: pKd of selected sequences
# measured.target: HLA-B*35:01
# method.description: IEDB peptide-MHC binding, purified MHC/competitive/radioactivity; filed as Kd, often an IC50 or EC50 that approximates it; bounds were set here for any values at or beyond the usual limits of such assays
# condition.set: source organism: human papillomavirus 18
pKd: −log10 of the molar value.
metric.name: pKd

* QPFILYAHI | ≤ 4.60
* SPLGERLEV | ≤ 4.60

###

# measured.target: HLA-B*51:01
# method.description: IEDB peptide-MHC binding, purified MHC/competitive/radioactivity; bounds were set here for any values at or beyond the usual limits of such assays
# condition.set: source organism: Human papillomavirus type 6b
pIC50: −log10 of the molar value.
metric.name: pIC50

• IPFLTKFKL = 7.51

###

Examples of sequences with documented Kd follow.
# measured.target: HLA-B*07:02
# method.description: IEDB peptide-MHC binding, purified MHC/competitive/radioactivity; filed as Kd, often an IC50 or EC50 that approximates it; bounds were set here for any values at or beyond the usual limits of such assays
# condition.set: source organism: Homo sapiens
metric.name: Kd (µM)

- TPAEVSIVV: 1.53
- LPSPACQLV: 7.86
- LPFRNCPRF: 1.12

###

# measured.target: HLA-B*07:02
# method.description: IEDB peptide-MHC binding, purified MHC/competitive/radioactivity; bounds were set here for any values at or beyond the usual limits of such assays
# condition.set: source organism: Human T-cell leukemia virus type I
pIC50: −log10 of the molar value.
metric.name: pIC50

* LPTTLFQPY | 6.37

###

Catalogue of Kd readings, one per entry.
# measured.target: HLA-B*35:01
# method.description: IEDB peptide-MHC binding, purified MHC/competitive/radioactivity; filed as Kd, often an IC50 or EC50 that approximates it; bounds were set here for any values at or beyond the usual limits of such assays
# condition.set: source organism: Homo sapiens
metric.name: Kd (µM)

* TPAEVSIVV | 2.12
* LPSIPVHPI | 2.94
* FPPEGVSIW | 4.24
* MPNQAQMRI | 1.04

###

pIC50 overview
# measured.target: HLA-B*07:02
# method.description: IEDB peptide-MHC binding, purified MHC/competitive/radioactivity; bounds were set here for any values at or beyond the usual limits of such assays
# condition.set: source organism: Candida albicans
pIC50: −log10 of the molar value.
metric.name: pIC50

* FPASFFIKL | 7.85
* FPRFKFVWV | 7.29

###

# measured.target: HLA-B*53:01
# method.description: IEDB peptide-MHC binding, purified MHC/competitive/radioactivity; filed as Kd, often an IC50 or EC50 that approximates it; bounds were set here for any values at or beyond the usual limits of such assays
# condition.set: source organism: human papillomavirus 18
metric.name: Kd (µM)

• QPFILYAHI = 5.47

###

# measured.target: HLA-B*53:01
# method.description: IEDB peptide-MHC binding, purified MHC/competitive/radioactivity; filed as Kd, often an IC50 or EC50 that approximates it; bounds were set here for any values at or beyond the usual limits of such assays
# condition.set: source organism: Hepatitis C virus (isolate Taiwan)
pKd: −log10 of the molar value.
metric.name: pKd

- FPYLVAYQA: 5.77

###

# measured.target: HLA-B*07:02
# method.description: IEDB peptide-MHC binding, purified MHC/competitive/radioactivity; bounds were set here for any values at or beyond the usual limits of such assays
# condition.set: source organism: Human T-cell lymphotrophic virus type 1 (Caribbean isolate)
pIC50: −log10 of the molar value.
metric.name: pIC50

• WPLLPHVIF = 6.44

###

# measured.target: HLA-B*35:01
# method.description: IEDB peptide-MHC binding, purified MHC/competitive/radioactivity; filed as Kd, often an IC50 or EC50 that approximates it; bounds were set here for any values at or beyond the usual limits of such assays
# condition.set: source organism: Human immunodeficiency virus type 1 (RF/HAT ISOLATE)
metric.name: Kd (µM)

- FPISPIETV: 1.05

###

# measured.target: HLA-B*53:01
# method.description: IEDB peptide-MHC binding, purified MHC/competitive/radioactivity; filed as Kd, often an IC50 or EC50 that approximates it; bounds were set here for any values at or beyond the usual limits of such assays
# condition.set: source organism: Human T-cell lymphotrophic virus type 1 (Caribbean isolate)
metric.name: Kd (nM)

- WPLLPHVIF: 1010

###

# log10 IC50 per record follows
# measured.target: HLA-B*53:01
# method.description: IEDB peptide-MHC binding, purified MHC/competitive/radioactivity; bounds were set here for any values at or beyond the usual limits of such assays
# condition.set: source organism: Homo sapiens
metric.name: log10 IC50 (log10 of the value in nM)

* LPSIPVHPI | 2.67
* LPFRNCPRF | 2.79
* FPPEGVSIW | 1.20
* LPTNASLSF | 1.53
* SPATLLLVL | 1.36
* CPLERFAEL | 2.30
* HPEDTGQVF | 2.61
* MPNQAQMRI | 1.30
* MPREDAHFI | 0.82

###

# measured.target: HLA-B*35:01
# method.description: IEDB peptide-MHC binding, purified MHC/competitive/radioactivity; filed as Kd, often an IC50 or EC50 that approximates it; bounds were set here for any values at or beyond the usual limits of such assays
# condition.set: source organism: Candida albicans
metric.name: Kd

• FPRFKFVWV = ≥ 25 µM

###

# measured.target: HLA-B*53:01
# method.description: IEDB peptide-MHC binding, purified MHC/competitive/radioactivity; bounds were set here for any values at or beyond the usual limits of such assays
# condition.set: source organism: Human immunodeficiency virus type 1 (RF/HAT ISOLATE)
metric.name: IC50 (nM)

• FPISPIETV = 251

###

# measured.target: HLA-B*54:01
# method.description: IEDB peptide-MHC binding, purified MHC/competitive/radioactivity; bounds were set here for any values at or beyond the usual limits of such assays
# condition.set: source organism: Homo sapiens
# binning rule on IC50: b0 = under 40 nM, b1 = from 40 nM up to 300 nM, b2 = 300 nM and over

* LPQPPICTI | b0
* TPAEVSIVV | b2
* LPSPACQLV | b1
* LPSIPVHPI | b0
* MPNQAQMRI | b2
* LPFRNCPRF | b1
* VPLAHSSSA | b0
* EPGPVTAQV | b2

###

# measured.target: HLA-B*35:01
# method.description: IEDB peptide-MHC binding, purified MHC/competitive/radioactivity; filed as Kd, often an IC50 or EC50 that approximates it; bounds were set here for any values at or beyond the usual limits of such assays
# condition.set: source organism: human papillomavirus 11
pKd: −log10 of the molar value.
Known pKd of a selection of sequences
metric.name: pKd

- QPKKVKRRL: ≤ 4.60
- SPISNVANA: ≤ 4.60

###

Reported Kd by item:
# measured.target: HLA-B*53:01
# method.description: IEDB peptide-MHC binding, purified MHC/competitive/radioactivity; filed as Kd, often an IC50 or EC50 that approximates it; bounds were set here for any values at or beyond the usual limits of such assays
# condition.set: source organism: Human immunodeficiency virus 1
metric.name: Kd (nM)

- FPVRPQVPQ: 1300
- FPVRPQVPT: 1300
- FPVRPQVPC: 1300
- FAVRPQVPL: 6170

###

# measured.target: HLA-B*35:01
# method.description: IEDB peptide-MHC binding, purified MHC/competitive/radioactivity; filed as Kd, often an IC50 or EC50 that approximates it; bounds were set here for any values at or beyond the usual limits of such assays
# condition.set: source organism: Human immunodeficiency virus 1
pKd: −log10 of the molar value.
metric.name: pKd

• FPVRPQVPC = 5.89

###

# measured.target: HLA-B*51:01
# method.description: IEDB peptide-MHC binding, purified MHC/competitive/radioactivity; bounds were set here for any values at or beyond the usual limits of such assays
# condition.set: source organism: Human immunodeficiency virus type 1 (RF/HAT ISOLATE)
metric.name: IC50 (nM)

- FPISPIETV: 147
